// note: IC50 values for PIK3CB (Human) (UniProt P42338) were reported in different studies

Molecule | IC50
Cc1cccc2cc(C(C)Nc3ncnc4[nH]cnc34)n(-c3ccccc3F)c(=O)c12 (centres unmarked) | < 10 µM
CNC(=O)C(C)Cn1cnc2ccc(-c3cnc(OC)c(NS(=O)(=O)c4ccc(F)cc4)c3)cc2c1=O (single isomer, unassigned) | 0.355 µM
CNC(=O)C(C)Cn1cnc2ccc(-c3cnc(OC)c(NS(=O)(=O)c4cc(C)cc(F)c4)c3)cc2c1=O (single isomer, unassigned) | 0.331 µM
CC(C)N1CCC(Oc2nc([C@H](C)Nc3ncnc4cccnc34)cc3cccc(Cl)c23)CC1 | > 10 µM
Cc1cccc2cc(Cn3nc(-c4cn[nH]c4)c4c(N)ncnc43)n(-c3ccccc3C(C)C)c(=O)c12 | < 1 µM
CNC(=O)CN1CCN(c2cnc3ccc(-c4ccc5oc(N)nc5c4)cc3n2)CC1 | < 1 µM
Cc1cccc2nccc(-n3c(C)nc4c(C(N)=O)cc(-c5ccncc5)cc43)c12 | 0.95 µM
Cc1cccc2cc([C@H](C)Nc3cc(N)nc(N)n3)n(C3CC3)c(=O)c12 | > 10 µM
CCN(CC)c1ncc2c(n1)-c1sc(NC(=O)N3C[C@H](F)C[C@H]3C(N)=O)nc1CC2 | 0.297 µM
Nc1nc2cc(-c3ccc4ncc(N5CCN(C(=O)[C@@H]6CCCN6)CC5)nc4c3)ccc2o1 | < 0.1 µM
C[C@H](Nc1nc(N)ncc1C#N)c1cc2ccccc2c(=O)n1-c1ccccc1 | 1 to 10 µM
Cc1cccc2cc(Cn3nc(/C=C4/SC(=O)NC4=O)c4c(N)ncnc43)n(-c3ccccc3F)c(=O)c12 | < 10 µM
Cc1cccc2cc(C(C)Nc3ncnc4[nH]cnc34)n(-c3c(F)cccc3F)c(=O)c12 (centres unmarked) | > 10 µM
Cc1cc(-c2ccc3ncc(C(=O)N4CCOCC4)n3c2)cc2nc(N)oc12 | < 10 µM
Cc1ccccc1-n1c(Cn2nc(-c3ccc4nc(N)sc4c3)c3c(N)ncnc32)cc2cccc(C)c2c1=O | < 10 µM
C[C@H](Nc1ncnc2[nH]cnc12)c1cc2cccc(Cl)c2c(C(=O)N2CCC2)n1 | < 10 µM
C[C@H](Nc1nc(N)ncc1C#N)c1cc2cccc(-c3cnc4ccccc4c3)c2c(=O)n1-c1cccc(F)c1 | 1 to 10 µM
CC(=O)Nc1nc2cc(-c3ccc4oc(N)nc4c3)ccc2s1 | > 10 µM
Cc1ccccc1-n1c(Cn2nc(I)c3c(N)ncnc32)nc2scc(C)c2c1=O | > 10 µM
CCOC(=O)N1CCN(c2cnc3ccc(-c4ccc5oc(N)nc5c4)nc3c2)CC1 | < 10 µM
CNC(=O)[C@H](C)Cn1cnc2ccc(-c3cnc(OC)c(NS(=O)(=O)c4cccc(C)c4Cl)c3)cc2c1=O | 0.152 µM
Cc1ccccc1-n1c(CN(C)c2ncnc3[nH]cnc23)cc2cccc(C)c2c1=O | > 10 µM
C[C@H](Nc1ncnc2[nH]cc(C(N)=O)c12)c1cc2cccc(Cl)c2c(C(=O)N2CCOCC2)n1 | < 10 µM
CC(=O)Nc1ncc(-c2cccc(NS(C)(=O)=O)c2)nc1C(=O)N[C@@H](C)c1cc2cccc(Cl)c2c(=O)n1C | > 10 µM
CCc1ccccc1-n1c(Cn2nc(-c3cc(O)cc(F)c3)c3c(N)ncnc32)nc2scc(C)c2c1=O | < 1 µM
C[C@H](NC(=O)c1c(N)nn2cccnc12)c1cc2cccc(Cl)c2c(=O)n1CCNCCO | < 0.1 µM
CNS(=O)(=O)c1cncc(-c2ccc3ncc(C(=O)N4CCOCC4)n3c2)c1 | > 10 µM
CC(=O)Nc1nc2ccc(-c3nc(N4CCOCC4)c4sc(CN5CCN(S(C)(=O)=O)CC5)cc4n3)cc2s1 | > 10 µM
C[C@@H]1CN(C2CN(C(=O)c3cnc4ccc(-c5ccc6oc(N)nc6c5)cn34)C2)CCN1 | < 10 µM
Nc1nc2cc(-c3ccc4ncc(C(=O)N5CC[C@H](F)C5)n4c3)ccc2o1 | > 10 µM
Cc1ccc(NC(=O)c2cnc3ccc(-c4ccc5oc(N)nc5c4)cn23)cn1 | > 10 µM
C[C@H]1COCCN1C(=O)c1cnc2ccc(-c3ccc4oc(N)nc4c3)cn12 | < 10 µM
